# IC50 per entry for porcine pancreatic PLA2 (Sus scrofa, UniProt P00592)

For O=C1O/C(=C/Br)CCC1c1ccccc1 (centres unmarked) [Example 5] on porcine pancreatic PLA2 (Sus scrofa, UniProt P00592), measured IC50 was > 100 µM

Others:
Readout IC50 for O=C1O/C(=C/Br)CCC1c1cccc2ccccc12 (centres unmarked) [Example 3] , test system porcine pancreatic PLA2 (Sus scrofa, UniProt P00592), was > 100 µM

Cited source for all entries: patent US5208244A
